Experiment: Pharmacokinetic drug-drug interaction study of vildagliptin 100 mg qd and metformin 1000 mg qd in patients with type 2 diabetes
Format: in vivo
Conditions: human, plasma, single oral dose of 100 mg, concomitantly with 1000 mg of metformin
Observation Type: AUC(0-t) (ng·h/mL)
State the answer as a number, implicitly in ng·h/mL.

Value of AUC(0-t) reported for the molecule N#C[C@@H]1CCCN1C(=O)CNC12CC3CC(CC(O)(C3)C1)C2 [vildagliptin] is 1840

* * *

Test: Pharmacokinetic drug-drug interaction study of vildagliptin 100 mg qd and metformin 1000 mg qd in patients with type 2 diabetes
Assay type: in vivo
Settings: human, plasma, single oral dose of 100 mg, concomitantly with 1000 mg of metformin
Observation Type: Tmax (h)
Provide the reading as a plain figure in h.

# Tmax (molecule: N#C[C@@H]1CCCN1C(=O)CNC12CC3CC(CC(O)(C3)C1)C2 ) is 2.5

Measured values drawn from patent US20060210627A1 for this set.
